- System: mixture of A. niger (ATCC 9642) and P. funiculosum (ATCC 11797)
- procedure summary: Zone of Inhibition, flexible PVC coupons on seeded Malt agar
- Assay type: cell-based
- Design: key: A zone of inhibition around the sample is rated as “+”; The absence of zone of inhibition is rated as “−”
- condition label: Quantity 500 ppm, 4 weeks

molecule	target entity	Zone inhibition
CCCCCCCCn1sccc1=O	mixture of A. niger (ATCC 9642) and P. funiculosum (ATCC 11797)	−
CCCCNC(=O)OCC#CI [IPBC, 3-iodo-2-propynylbutyl-carbamate]	mixture of A. niger (ATCC 9642) and P. funiculosum (ATCC 11797)	+
c1ccc2[nH]c(-c3cscn3)nc2c1	mixture of A. niger (ATCC 9642) and P. funiculosum (ATCC 11797)	−
c1ccc2c(c1)Oc1ccccc1[As]2O[As]1c2ccccc2Oc2ccccc21	mixture of A. niger (ATCC 9642) and P. funiculosum (ATCC 11797)	+
